- target entity: human serum albumin (human) (UniProt P02768)
- Sequence (P02768 25-609 limits assumed): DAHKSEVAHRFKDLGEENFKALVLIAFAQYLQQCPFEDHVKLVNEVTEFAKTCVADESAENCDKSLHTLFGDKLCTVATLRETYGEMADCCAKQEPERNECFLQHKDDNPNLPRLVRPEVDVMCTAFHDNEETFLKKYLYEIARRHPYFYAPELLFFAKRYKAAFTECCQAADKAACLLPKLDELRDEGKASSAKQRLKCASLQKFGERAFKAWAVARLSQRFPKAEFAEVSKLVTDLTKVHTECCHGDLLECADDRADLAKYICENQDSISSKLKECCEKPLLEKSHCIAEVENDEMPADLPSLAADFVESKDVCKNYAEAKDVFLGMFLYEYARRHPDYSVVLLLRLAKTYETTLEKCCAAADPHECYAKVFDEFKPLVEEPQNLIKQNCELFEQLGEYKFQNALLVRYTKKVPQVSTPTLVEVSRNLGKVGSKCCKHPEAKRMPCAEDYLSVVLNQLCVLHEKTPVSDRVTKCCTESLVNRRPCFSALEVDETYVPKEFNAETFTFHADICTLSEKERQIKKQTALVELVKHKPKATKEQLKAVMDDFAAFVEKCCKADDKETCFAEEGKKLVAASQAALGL
- run description: solution ELISA screen (luminescence)
Listing: RLU of selected binders

binder | unit abbrev | RLU
SEQ ID NO 247 (designed binder, not shown: small tags and cut ends) MLPAPKNLVVSRVTEDSARLSWTAPDAAFDSFYIAYAEPRPDGEAILLHVPGSERSYDLTGLKPGTEYSVLIHGVKGGLLSSPLRASFTT | RLU | 19000
SEQ ID NO 236 (designed binder, not shown: small tags and cut ends) MLPAPKNLVVSRVTEDSARLSWTAPDAAFDSFYIAYAEPRPDGEAILLQVPGSERSYDLTGLKPGTEYSVLIHGVKGGLLSSPLDAEFTT | RLU | 15600

Origin of measurements: patent US20220332795A1
